Hello, the source for this data is patent US7312240B2, in case you need it.

- System: Taxol binding site on crosslinked microtubules (polymerized tubulin)
- PROTOCOL_TEXT: Competition binding with fluorescent Taxol N-AB-PT
- APPLIED_CONDITIONS: 10 μM Taxol or Taxoid, 5 μM N-AB-PT, 5 μM crosslinked microtubules
Under this convention, Criterion met denotes Inhibit binding F-Taxol strictly below 30% and Criterion not met denotes Inhibit binding F-Taxol at or above 30%.

MOLECULE	LABEL
CC(=O)O[C@H]1C(=O)[C@@]2(C)[C@H]([C@H](OC(=O)c3ccccc3)[C@]3(O)C[C@H](OC(=O)[C@H](O)[C@@H](NC(=O)c4ccccc4)c4ccccc4)C(C)=C1C3(C)C)[C@]1(OC(C)=O)CO[C@@H]1C[C@@H]2O [Taxol, Paclitaxel]	Criterion met
CC(=O)OC1C(=O)C2(C)C(O)CC3OCC34OC(=O)CCCOc3ccccc3C(NC(=O)c3ccccc3)C(O)C(=O)OC3CC(O)(C(OC(=O)c5ccccc5)C42)C(C)(C)C1=C3C (centres unmarked) [Compound 14b]	Criterion met
CC(=O)OC1C(=O)C2(C)C(O)CC3OCC34OC(=O)CCCc3ccccc3C(NC(=O)c3ccccc3)C(O)C(=O)OC3CC(O)(C(OC(=O)c5ccccc5)C42)C(C)(C)C1=C3C (centres unmarked) [Compound 14a]	Criterion not met
CC(=O)O[C@H]1C(=O)[C@@]2(C)[C@@H]3[C@H](OC(=O)c4ccccc4)[C@]4(O)C[C@H](OC(=O)[C@H](O)[C@@H](NC(=O)c5ccccc5)c5ccccc5C/C=C\C(=O)O[C@]35CO[C@@H]5C[C@@H]2O)C(C)=C1C4(C)C [Compound 13a]	Criterion not met
